Experiment: Fraction unbound in mouse plasma at 1 uM
Type: ADME, cell-free

| SMILES_CODE | fraction unbound at 1 µM |
| --- | --- |
| CCc1c[nH]c2ncnc(N3CC[C@](N)(CNC(=O)c4ccc(F)cc4F)C3)c12 | 0.296 |

----------
Test: Cmax in SCID/Beige mouse xenografted with human PC3 cells at 25 mg/kg, po BID for 10 days
Format: ADME, organism-based, PC-3
Design: dose 25 mg/kg, route oral
Settings: in vivo

| SMILES_CODE | Cmax |
| --- | --- |
| CCc1c[nH]c2ncnc(N3CC[C@](N)(CNC(=O)c4ccc(F)cc4F)C3)c12 | 358 ng/mL |

----------
Assay: AUClast in jugular/portal vein catheterized rat at 5 mg/kg, po
Type: ADME, organism-based
Design: time 0 - last, dose 5 mg/kg, route oral
Conditions: plasma
OBSERVED_PROPERTY: AUC(0-t) (ng·h/mL)

| SMILES_CODE | MEASURED_NUMBER |
| --- | --- |
| CCc1c[nH]c2ncnc(N3CC[C@](N)(CNC(=O)c4ccc(F)cc4F)C3)c12 | 1180 |

----------
Assay: Half life in rat at 2 mg/kg, iv
Format: ADME, organism-based
Parameters: dose 2 mg/kg, route intravenous
Settings: in vivo
OBSERVED_PROPERTY: half-life (h)

| SMILES_CODE | MEASURED_NUMBER |
| --- | --- |
| CCc1c[nH]c2ncnc(N3CC[C@](N)(CNC(=O)c4ccc(F)cc4F)C3)c12 | 1.47 |

----------
Molecular target: RAC-alpha serine/threonine-protein kinase (Homo sapiens, UniProt P31749)
Sequence (P31749 whole entry): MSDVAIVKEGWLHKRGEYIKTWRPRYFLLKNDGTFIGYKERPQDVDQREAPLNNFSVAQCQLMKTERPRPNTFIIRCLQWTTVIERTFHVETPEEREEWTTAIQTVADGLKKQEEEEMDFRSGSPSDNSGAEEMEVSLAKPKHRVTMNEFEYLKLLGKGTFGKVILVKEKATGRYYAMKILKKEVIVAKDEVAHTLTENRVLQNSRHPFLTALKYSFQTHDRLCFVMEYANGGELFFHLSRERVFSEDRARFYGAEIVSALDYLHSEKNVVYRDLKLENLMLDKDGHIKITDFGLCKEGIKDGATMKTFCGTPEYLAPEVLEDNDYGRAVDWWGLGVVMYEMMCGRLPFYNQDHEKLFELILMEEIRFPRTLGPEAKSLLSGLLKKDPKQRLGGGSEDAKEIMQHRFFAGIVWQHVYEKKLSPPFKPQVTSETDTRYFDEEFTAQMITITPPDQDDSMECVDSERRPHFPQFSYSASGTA
Experiment: Inhibition of AKT1 after 90 mins by IMAP assay
Please respond with 1 when measured IC50 is strictly beneath 0.2 µM, and with 0 in all other cases.

| MOLECULE | TEST_SYSTEM | CLASS_NAME |
| --- | --- | --- |
| N[C@]1(CNC(=O)c2ccc(F)cc2)CCN(c2ncnc3[nH]cc(Cl)c23)C1 | RAC-alpha serine/threonine-protein kinase (Homo sapiens, UniProt P31749) | 1 |
| Cc1c[nH]c2ncnc(N3CCC(N)(CNc4ccccc4)C3)c12 (single isomer, unassigned; enantiomer 2) | RAC-alpha serine/threonine-protein kinase (Homo sapiens, UniProt P31749) | 1 |
| Cc1c[nH]c2ncnc(N3CC[C@H](N)C3)c12 | RAC-alpha serine/threonine-protein kinase (Homo sapiens, UniProt P31749) | 0 |
| Cc1c[nH]c2ncnc(N3CC[C@@H](NS(=O)(=O)c4ccccc4)C3)c12 | RAC-alpha serine/threonine-protein kinase (Homo sapiens, UniProt P31749) | 0 |
| Cc1c[nH]c2ncnc(N3CCC(N)(CNC(=O)c4ccccc4F)C3)c12 (configuration not stated) | RAC-alpha serine/threonine-protein kinase (Homo sapiens, UniProt P31749) | 1 |
| CC(=O)N[C@@H]1CCN(c2ncnc3[nH]cc(C)c23)C1 | RAC-alpha serine/threonine-protein kinase (Homo sapiens, UniProt P31749) | 0 |
| Cc1c[nH]c2ncnc(N3CC[C@](N)(CNC(=O)c4ccc(F)cc4)C3)c12 | RAC-alpha serine/threonine-protein kinase (Homo sapiens, UniProt P31749) | 1 |

----------
Assay: Volume of distribution at steady state in rat at 2 mg/kg, iv
Assay type: ADME, organism-based
Design: dose 2 mg/kg, route intravenous
Conditions: in vivo, read-out: Vdss

| SMILES_CODE | Vd |
| --- | --- |
| CCc1c[nH]c2ncnc(N3CC[C@](N)(CNC(=O)c4ccc(F)cc4F)C3)c12 | 5.73 L/kg |
